Test system: 786-0 renal
method: NCI-60 one-dose screen, 48 h (100 = growth as untreated, 0 = no growth, -100 = all killed)
experimental_parameters: 10 µM
Compounds without any hit were thinned out: in the full panel of roughly 83,000, 20% have a hit.
Lab note: compare growth against 80%. Equal or greater, write true (1). Smaller, write false (0).

# molecule, tested_on, label_class
records = [
    ("CC(C)NC(=O)OCc1c(COC(=O)NC(C)C)c(-c2ccc(Cl)c(Cl)c2)n2c1SCC2", "786-0 renal", "false (0)"),
]

**Q:** hey, is growth for this one >= 80%? O=[N+]([O-])c1ccc(-c2noc(-c3cccs3)n2)cc1
**A:** false (0)

**Q:** hey, is growth for this one >= 80%? CC(C)=CC(=O)OC(=O)C=C(C)C
**A:** true (1)

**Q:** hey, is growth for this one >= 80%? O=[N+]([O-])c1cccc(N=Nc2ccc(O)cc2O)c1
**A:** false (0)

**Q:** hey, is growth for this one >= 80%? O=c1cc(-c2ccccc2)[nH]c(=S)[nH]1
**A:** true (1)

**Q:** hey, is growth for this one >= 80%? COc1ccc(C(O)c2ccccc2)cc1 (configuration not stated)
**A:** true (1)

**Q:** hey, is growth for this one >= 80%? O=P(O)(O)OCC(O)CO (configuration not stated)
**A:** true (1)
